- Target Of Assay: WIL-FL* (Homo sapiens, UniProt P01721, K101C, form not given)
- Assay Method Text: Protease-coupled fluorescence polarization (PCFP) assay with proteinase K
- Setup Conditions: from dose response curves measured during the screening process
Recorded Metric: pEC50
Scale explanation: pEC50 corresponds to minus log10 of a concentration expressed in moles per litre.

# Compound, pEC50
data = [
    ("CC1CCCCC12NC(=O)N(CC(=O)Nc1ccc(C(F)(F)F)cc1)C2=O (stereo not shown)", 5.23),
    ("CC(=O)c1ccc(S(=O)(=O)c2ccccc2)cc1", 4.74),
    ("CCOC(=O)Cc1c(C)c2ccc(N(CC)CC)cc2oc1=O", 5.16),
    ("CCN(CC)c1ccc2c(C)c(Cl)c(=O)oc2c1", 5.40),
    ("CN(C)c1ccc(C2OCC(Cl)([N+](=O)O)CO2)cc1 (stereo not shown)", 5.17),
]

Q) If you can, please state the reported pEC50 value of CC(C=NNc1ccc(S(N)(=O)=O)cc1[N+](=O)[O-])c1ccccc1 (stereo not shown) .
A) 5.31

Q) Please answer likewise for CC(=O)c1ccn(S(=O)(=O)c2ccccc2)c1
A) 4.73

Q) Please answer likewise for CCN(CC)c1ccc2c(C)c(CN3CCOCC3)c(=O)oc2c1
A) 4.95

Q) Please answer likewise for CCN(CC)c1ccc2c(C)c(I)c(=O)oc2c1
A) 5.38

Q) Please answer likewise for CCN(CC)c1ccc2c(CN3CCOCC3)cc(=O)oc2c1
A) 5.04

Q) Please answer likewise for CC(C)CC1NC(=O)N(CC(=O)Nc2ccc(C(F)(F)F)cc2)C1=O (racemic)
A) 5.13

Q) Please answer likewise for CC(Oc1ccc(/C=C(\C#N)C(N)=O)cc1)c1ccccc1 (stereo not shown)
A) 5.20

Q) Please answer likewise for CCN(CC)c1ccc2ccc(=O)oc2c1
A) 5.10

Q) Please answer likewise for CC(Oc1ccc2ccc(=O)oc2c1)c1ccccc1 (stereo not shown)
A) 5.03

Q) Please answer likewise for Cc1cc(O)nc(N/N=C/C=C/c2ccccc2[N+](=O)[O-])n1
A) 5.26

Q) Please answer likewise for CCN(CC)c1ccc2c(C)c(CC(C)=O)c(=O)oc2c1
A) 5.04

====

Known PK activity (%) of a selection of compounds
- Target Of Assay: WIL-FL* (Homo sapiens, UniProt P01721, K101C, form not given)
- Assay Method Text: Protease-coupled fluorescence polarization (PCFP) assay with proteinase K
- Setup Conditions: secondary screen, mean ± sd, n=3; 6.75 μM compound; FP retention after 24 h at 22° C., normalized to high and low controls
Write the answer as a number in %, unit excluded.

Examples with their reported PK activity (%) follow.
# Compound, Readout Unit, PK activity (%)
rows = [
    ("CCN(CC)c1ccc2c(C)cc(=O)oc2c1", "%", 47.8),
    ("Cc1cc(O)nc(N/N=C/C=C/c2ccccc2[N+](=O)[O-])n1", "%", 65.2),
    ("CCN(CC)c1ccc2c(C)c(CC(C)=O)c(=O)oc2c1", "%", 41.9),
    ("CC(Oc1ccc(/C=C(\\C#N)C(N)=O)cc1)c1ccccc1 (centres unmarked)", "%", 48.9),
]

Q) If you can, please state the reported PK activity (%) value of CCN(CC)c1ccc2c(C)c(Cl)c(=O)oc2c1 .
A) 48.0
